Please find below Ki data on hCRTH2 receptor (Homo sapiens (Human), UniProt Q9Y5Y4) compiled from the literature.

Sample records with Ki:
Molecule: CCc1nn(Cc2ccc(-c3nc4cc(C)c(Cl)cc4[nH]3)cc2)c(CC)c1CC(=O)O
Ki: 0.5 nM
//
Molecule: CCc1nc2c(F)ccc(OCC(=O)O)c2c(OC(F)F)c1Cc1ccc(S(C)(=O)=O)cc1Cl
Ki: < 100 nM
//
Molecule: Cc1c(C2=NN(C(C)C)S(=O)(=O)c3ccccc32)c2cc(F)ccc2n1CC(=O)O
Ki: < 100 nM
//
Molecule: CN(Cc1ccc(-c2nccnc2NS(=O)(=O)c2ccccc2Cl)cc1)c1ccc(OC(F)(F)F)cc1
Ki: 1260 nM
//
Molecule: CCCc1nc2cc(N(Cc3ccc(F)cc3)C(=O)C3CC3)ccc2n1CC(=O)O
Ki: < 1000 nM
//
Molecule: CC(c1ccccc1)c1cnnn1C1CCc2c(CC(=O)O)c3cccc(F)c3n2C1 (single isomer, unassigned)
Ki: ≤ 5 nM
//
Molecule: Cc1c(Cc2ccc(F)cc2F)c(OC(F)F)nc2c(F)ccc(OCC(=O)O)c12
Ki: < 100 nM

Field Ki (system: hCRTH2 receptor (Homo sapiens (Human), UniProt Q9Y5Y4)) for entry `CN(C(=O)C(C)(C)Cc1ccccc1)[C@@H]1CCc2c(CC(=O)O)c3ccccc3n2C1` = 5 to 10 nM
